Catalogue of compounds with associated EC50
- Tested on: EBV
- assay.summary: In vitro antiviral assay for EBV
- Assay type: cell-based, Epstein-Barr Virus
- applied.conditions: human gammaherpesvirus 4, read-out: Antiviral Activities (EC50, μM) EBV

{"columns": ["compound", "EC50"],
 "data": [
  ["O=C1NCc2c1cc1c(Br)cc3c(c1c2-c1ccc2c(c1)OCO2)OCO3 [Compound 40]", "> 20 µM"],
  ["CC(=O)NN1Cc2c(cc3ccc4c(c3c2-c2ccc3c(c2)OCO3)OCO4)C1=O [Compound 26]", "13 µM"],
  ["O=C1c2cc3ccc4c(c3c(-c3ccc5c(c3)OCO5)c2CN1CCCOCc1ccccc1)OCO4 [Compound 20]", "> 20 µM"],
  ["O=c1[nH][nH]c(=O)c2c(-c3ccc4c(c3)OCO4)c3c4c(cc(I)c3cc12)OCO4 [Compound 43]", "> 20 µM"],
  ["COC(=O)c1c(C(=O)O)cc2ccc3c(c2c1-c1ccc2c(c1)OCO2)OCO3 [Compound 31]", "> 20 µM"],
  ["NC(=O)c1cc2ccc3c(c2c(-c2ccc4c(c2)OCO4)c1C(=O)O)OCO3 [Compound 12]", "9 µM"],
  ["O=C1OCc2c1cc1c(Cl)cc3c(c1c2-c1ccc2c(c1)OCO2)OCO3 [Compound 37]", "> 20 µM"],
  ["O=C([O-])c1cc2c(I)cc3c(c2c(-c2ccc4c(c2)OCO4)c1CO)OCO3.[Na+] [Compound 46, monosodium salt]", "> 20 µM"]
]}

###

- System: EBV
- assay.summary: In vitro antiviral assay for EBV
- Type: cell-based, Epstein-Barr Virus
- applied.conditions: human gammaherpesvirus 4, read-out: Antiviral Activities (EC50, μM) EBV
- Method: The antiviral assays for HBV, (Doong et al., 1991, Proc. Natl. Acad. Sci. U.S.A. 88:8495-8499) HSV-1, (Bastow et al., 1983, Antimicrob. Agents Chemother. 23: 914-917) HSV-2, (Bastow et al., 1983, Antimicrob. Agents Chemother. 23:914-917) EBV, (Yao et al., 1993, Antimicrob. Agents Chemother. 37:1420-1425), CMV (Andreoni et al., 2002, J. Med. Virol. 67:33-40) and HIV (Mellors et al., 1992, Mol. Pharmacol. 41: 446-451) were performed according to the previously reported procedures. […]

{"columns": ["compound", "EC50"],
 "data": [
  ["O=C(NCCCOCc1ccccc1)c1cc2ccc3c(c2c(-c2ccc4c(c2)OCO4)c1COCc1ccccc1)OCO3", "> 15 µM"],
  ["CN1Cc2cc3ccc4c(c3c(-c3ccc5c(c3)OCO5)c2C1=O)OCO4", "> 20 µM"],
  ["CC(=O)NN1Cc2cc3ccc4c(c3c(-c3ccc5c(c3)OCO5)c2C1=O)OCO4", "> 20 µM"],
  ["O=C(OCCCOCc1ccccc1)c1cc2ccc3c(c2c(-c2ccc4c(c2)OCO4)c1COCc1ccccc1)OCO3", "> 20 µM"],
  ["O=C1c2cc3ccc4c(c3c(-c3ccc5c(c3)OCO5)c2C(=O)N1O)OCO4", "> 5 µM"],
  ["CN(C)C(=O)c1cc2ccc3c(c2c(-c2ccc4c(c2)OCO4)c1C(=O)O)OCO3", "> 20 µM"],
  ["COC(=O)c1cc2ccc3c(c2c(-c2ccc4c(c2)OCO4)c1C(=O)OC)OCO3", "> 20 µM"],
  ["CNC(=O)c1cc2ccc3c(c2c(-c2ccc4c(c2)OCO4)c1C(=O)O)OCO3", "> 20 µM"],
  ["O=C(O)c1cc2ccc3c(c2c(-c2ccc4c(c2)OCO4)c1COCc1ccccc1)OCO3", "> 20 µM"],
  ["O=C1OCc2c1cc1ccc3c(c1c2-c1ccc2c(c1)OCO2)OCO3 [Compound 2, reference compound]", "> 20 µM"],
  ["O=C1OC(=O)c2c1cc1ccc3c(c1c2-c1ccc2c(c1)OCO2)OCO3", "> 20 µM"],
  ["O=C1OCc2c1cc1c(Br)cc3c(c1c2-c1ccc2c(c1)OCO2)OCO3", "> 15 µM"],
  ["O=C1c2cc3ccc4c(c3c(-c3ccc5c(c3)OCO5)c2CN1CCCO)OCO4", "> 20 µM"],
  ["O=C1NCc2c1cc1ccc3c(c1c2-c1ccc2c(c1)OCO2)OCO3", "11 µM"],
  ["CCOC(=O)c1c(C(=O)OCC)c(-c2ccc3c(c2)OCO3)c2c3c(ccc2c1O)OCO3", "> 10 µM"],
  ["O=C(O)c1cc2ccc3c(c2c(-c2ccc4c(c2)OCO4)c1C(=O)O)OCO3", "> 20 µM"],
  ["NC(=O)c1cc2ccc3c(c2c(-c2ccc4c(c2)OCO4)c1C(N)=O)OCO3", "> 20 µM"]
]}

###

- assay.summary: Cell cytotoxicity assay on MT-2 cells
- Format: cell-based
- applied.conditions: human, read-out: Cytotoxity (ID50, μM) MT-2

{"columns": ["compound", "IC50"],
 "data": [
  ["O=C1OCc2c1c(-c1ccc3c(c1)OCO3)c1c3c(ccc1c2O)OCO3", "13 µM"],
  ["CN1Cc2cc3ccc4c(c3c(-c3ccc5c(c3)OCO5)c2C1=O)OCO4", "26 µM"],
  ["O=C([O-])c1cc2c(I)cc3c(c2c(-c2ccc4c(c2)OCO4)c1CO)OCO3.[Na+] [Compound 46, monosodium salt]", "80 µM"],
  ["O=C(OCCCOCc1ccccc1)c1cc2ccc3c(c2c(-c2ccc4c(c2)OCO4)c1COCc1ccccc1)OCO3", "> 100 µM"],
  ["O=C1c2cc3ccc4c(c3c(-c3ccc5c(c3)OCO5)c2CN1CCCOCc1ccccc1)OCO4", "28 µM"],
  ["NC(=O)c1cc2ccc3c(c2c(-c2ccc4c(c2)OCO4)c1C(N)=O)OCO3", "> 100 µM"],
  ["O=C1OCc2c1cc1c(I)cc3c(c1c2-c1ccc2c(c1)OCO2)OCO3", "80 µM"],
  ["COc1ccc(-c2c(C(=O)O)c(C(N)=O)cc3ccc4c(c23)OCO4)cc1OC", "10 µM"],
  ["O=C1OCc2c1cc1c(Br)cc3c(c1c2-c1ccc2c(c1)OCO2)OCO3", "> 100 µM"],
  ["O=C1NCc2c1cc1c(Br)cc3c(c1c2-c1ccc2c(c1)OCO2)OCO3", "54 µM"],
  ["O=C(OCc1ccccc1)c1cc2ccc3c(c2c(-c2ccc4c(c2)OCO4)c1COCc1ccccc1)OCO3", "> 100 µM"],
  ["O=C(O)c1cc2ccc3c(c2c(-c2ccc4c(c2)OCO4)c1COCc1ccccc1)OCO3", "48 µM"],
  ["O=C([O-])c1cc2c(Cl)cc3c(c2c(-c2ccc4c(c2)OCO4)c1CO)OCO3.[Na+] [Compound 44, monosodium salt]", "60 µM"],
  ["O=C([O-])c1cc2ccc3c(c2c(-c2ccc4c(c2)OCO4)c1CO)OCO3.[Na+] [Compound 3, monosodium salt]", "10 µM"],
  ["COC(=O)c1cc2ccc3c(c2c(-c2ccc4c(c2)OCO4)c1C(=O)OC)OCO3", "28 µM"],
  ["O=C1OC(=O)c2c1cc1ccc3c(c1c2-c1ccc2c(c1)OCO2)OCO3", "> 100 µM"]
]}

###

- assay.summary: Cell cytotoxicity assay on MT-2 cells
- Type: cell-based
- applied.conditions: human, read-out: Cytotoxity (ID50, μM) MT-2
# IC50 per record follows

{"columns": ["item.smiles", "IC50"],
 "data": [
  ["CC(=O)NN1Cc2cc3ccc4c(c3c(-c3ccc5c(c3)OCO5)c2C1=O)OCO4", "25 µM"],
  ["O=c1[nH][nH]c(=O)c2c(-c3ccc4c(c3)OCO4)c3c4c(cc(Cl)c3cc12)OCO4", "30 µM"],
  ["CC(=O)NN1C(=O)c2cc3ccc4c(c3c(-c3ccc5c(c3)OCO5)c2C1=O)OCO4", "> 100 µM"],
  ["O=C1c2cc3ccc4c(c3c(-c3ccc5c(c3)OCO5)c2CN1CCCO)OCO4", "22 µM"],
  ["O=C1c2cc3ccc4c(c3c(-c3ccc5c(c3)OCO5)c2C(=O)N1O)OCO4", "16 µM"],
  ["O=C1c2cc3ccc4c(c3c(-c3ccc5c(c3)OCO5)c2C(=O)N1CCCO)OCO4", "22 µM"],
  ["COC(=O)c1c(C(=O)O)cc2ccc3c(c2c1-c1ccc2c(c1)OCO2)OCO3", "90 µM"],
  ["O=c1[nH][nH]c(=O)c2c(-c3ccc4c(c3)OCO4)c3c4c(cc(I)c3cc12)OCO4", "35 µM"]
]}

###

- Test system: L526M/M550V (adr) HBV
- assay.summary: Extracellular HBV DNA in lamivudine-resistant DM2 cells, real-time PCR
- Type: cell-based
- applied.conditions: Hepatitis B virus, 144 h, read-out: EC50 (μM) L526M/M550V (adr)
Listed here: items and their measured EC50.
measured.metric: EC50 (µM)

{"columns": ["compound", "measured.on", "measured.metric", "limit.qualifier", "measurement"],
 "data": [
  ["COc1ccc(-c2c3c(cc4ccc5c(c24)OCO5)C(=O)NC3)cc1OC", "L526M/M550V (adr) HBV", "EC50", "=", 0.0003],
  ["Nc1ccn([C@@H]2CS[C@H](CO)O2)c(=O)n1", "L526M/M550V (adr) HBV", "EC50", ">", 3],
  ["O=C1OCc2c1cc1ccc3c(c1c2-c1ccc2c(c1)OCO2)OCO3 [Compound 2, reference compound]", "L526M/M550V (adr) HBV", "EC50", "=", 0.1]
]}
